System: S. cerevisiae Mot1-301 ts growth rescue, BacTiter-Glo ATP luminescence
protocol.description: restored Mot1-301 yeast growth at 38.5C – whole organism, S. cerevisiae, Mot1-301 ts mutant, luminescence, dose retest, SUMOylation pathway inhibitor project, confirmation (AID 463204);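 also: growth at restrictive 38.5 degrees C of Mot1-301 OY566 strain; actives raise luminescence by restoring growth of the ts mutant at high temperature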
Calls of active or inactive are those of the source.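 The calls were made as follows: active = AC50 no more than ten times the top concentration tested, that is within one log above it; inconclusive = flat curve fit with activity between 30% and 70%, or invalid poor fit; inactive = AC50 beyond ten times the top tested dose.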
Classes used: class 1 = active, class 0 = inactive

| compound | label |
| --- | --- |
| S=c1[nH]nc(-c2ccco2)n1-c1ccc(Br)cc1 | class 0 |
| CC1=CC(C)(C)N2C(=O)C3(NCCc4c3[nH]c3ccccc43)c3cc(C)cc1c32 (centres undefined) | class 1 |
| COc1cc2c(cc1NC(=O)c1cccnc1)oc1ccccc12 | class 0 |
| COCc1nnc(NC(=O)CC(C)C)s1 | class 0 |
| CCCn1c(N)cc(=O)n(CCC)c1=O | class 0 |
| CC(=O)N1CCCc2cc(S(=O)(=O)Nc3ccc(C)cc3C)ccc21 | class 0 |
| CS(=O)(=O)N(CC(=O)N1CCCCCC1)Cc1ccc(Cl)cc1 | class 0 |
| COc1ccc(C(=O)c2c(C)c3cc(C)ccc3n2CC(O)CN2CCOCC2)cc1 (centres undefined) | class 0 |
| O=C(O)c1ccc(CNC(=O)c2ccccc2NC(=O)c2ccc([N+](=O)[O-])cc2)cc1 | class 0 |
| CC(C)(C)C(=O)NC1(C(F)(F)F)NC(=O)N(c2ccccc2F)C1=O (centres undefined) | class 0 |
| O=C(Nc1nc(-c2ccccn2)cs1)c1ccc2c(c1)OCCO2 | class 0 |
| CC(=O)c1ccc(Nc2cc(C)nc3ccccc23)cc1 | class 0 |
| Cc1cc(C)n(CCOC(=O)C2C(C=C(Cl)Cl)C2(C)C)n1 (centres undefined) | class 0 |
| Cc1cccc(N=Nc2ccc(N(C)C)cc2)c1 | class 0 |
| O=C1CC(N(CCc2ccccc2)C(=S)Nc2ccccc2)C(=O)N1c1ccc(F)cc1 (centres undefined) | class 0 |
| O=C(Nc1ccc(F)cc1)c1cccnn1 | class 0 |
| O=C1CN(C(=O)COC(=O)CCNS(=O)(=O)c2ccc(Cl)cc2)c2ccccc2N1 | class 0 |
| O=c1[nH]cnc2ccc([N+](=O)[O-])cc12 | class 0 |
| O=C(CCc1ccccc1)NNC(=S)Nc1ccc(F)cc1 | class 0 |

----------
Test system: S. cerevisiae Mot1-301 ts growth rescue, BacTiter-Glo ATP luminescence
protocol.description: restored Mot1-301 yeast growth at 38.5C – whole organism, S. cerevisiae, Mot1-301 ts mutant, luminescence, dose retest, SUMOylation pathway inhibitor project, confirmation (AID 463204);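 also: growth at restrictive 38.5 degrees C of Mot1-301 OY566 strain; actives raise luminescence by restoring growth of the ts mutant at high temperature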
Active and inactive are the calls of the source.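 Rule for the calls: active = AC50 no more than ten times the top concentration tested, that is within one log above it; inconclusive = flat curve fit with activity between 30% and 70%, or invalid poor fit; inactive = AC50 beyond ten times the top tested dose.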
Classes used: active, inactive

| molecule | label |
| --- | --- |
| CCn1nnc(-c2ccccc2NC(=O)c2cnccn2)n1 | inactive |
| COC(C(=O)Nc1ccnn1C1CCN(Cc2cnn(C)c2)CC1)c1ccccc1 (stereo not drawn) | inactive |
| O=c1cc(-c2ccccc2)nc(N2CCN(Cc3ccccc3)CC2)[nH]1 | inactive |
| Cc1ccc(-c2ccc(/C=N/n3cnnc3)o2)cc1 | inactive |
| O=C(Nc1cc(F)ccc1F)C1CCCO1 (stereo not drawn) | inactive |
| Cc1ccc(-c2[nH]ncc2CNCCc2cnn(-c3ccccc3)c2)cc1C | inactive |
| Cc1ccc(C)c(OCCCC(=O)N2CCOCC2)c1 | inactive |
| CC1=Nc2ccccc2/C1=C\c1nc(-c2ccccc2)oc1O | inactive |
| CCCCCCOc1ccc(N2C(=O)CC(N3CCC(C(=O)OCC)CC3)C2=O)cc1 (stereo not drawn) | active |
| C/C(CC(=O)Nc1cccnc1)=N\NC(=O)C(C)Oc1ccc(Cl)cc1Cl (stereo not drawn) | inactive |
| CCc1cc2c(=O)c(-c3nc4ccccc4n3C)c(C)oc2c(CN2CCOCC2)c1O | inactive |
| CC(=O)c1ccccc1C(=O)N1CCCC(N2CCN(Cc3ccc4c(c3)OCO4)CC2)C1 (stereo not drawn) | inactive |
| CC(=O)c1cc(C)ccc1OC(=O)c1ccco1 | inactive |
| CCCc1ccccc1OCCNC(C)=O | inactive |
| O=C(CCSc1nnc(-c2ccncc2)o1)Nc1ccc(Cl)cc1 | inactive |
| CSc1nsc(SCC(=O)Nc2cccc(C(=O)O)c2)n1 | inactive |
| O=C(c1ccc2c(=O)n(Cc3ccccc3Cl)c(=S)[nH]c2c1)N1CCOCC1 | inactive |
| CCCC(=O)Nc1ccc(Sc2ccc([N+](=O)[O-])cc2)cc1 | active |
| O=C(NNC(=O)c1ccccc1O)c1ccco1 | inactive |
| COc1ccc(NC(=O)CN(C)C(=O)/C=C/c2cn(-c3ccccc3)nc2-c2ccc(F)cc2)cc1 | inactive |
| CC(C)Oc1ccc(C2(C#N)CC[N+](C)(C)CC2)cc1 | inactive |
| COc1cccc(NC(=O)CNC(=O)c2ccc(C)cc2)c1 | inactive |
| CCn1c(SCC(=O)Nc2ccc(NC(=O)c3ccco3)cc2)nnc1-c1cccs1 | inactive |
| Cc1ccc(Oc2ccccc2NC(=O)C2=COCCO2)cc1 | inactive |
| O=C(Cc1ccc(Cl)cc1Cl)OCC(=O)c1ccc[nH]1 | inactive |
| COc1ccc(OC)c(Cc2nnc(CCC(=O)NCc3ccsc3)o2)c1 | inactive |
| COc1ccc(S(=O)(=O)N2CCOC2CNC(=O)C(=O)NCc2ccncc2)cc1C (stereo not drawn) | inactive |
| CCOc1ccc(NC(=O)CN(C)C(=O)c2ccc(OCc3ccccc3)c(OC)c2)cc1OCC | inactive |
